Just for reference, paper PMC4959752 is where these values come from.

- experiment summary: Plasma protein binding assay (ultrafiltration)
- Assay type: in vitro ADME
- condition details: Wistar, rat, summary in discussion, read-out: protein binding (converted)
quantity measured: fraction unbound at 4 h
Lab note: jot the number down without any unit.

Q) Fill blank: measured fraction unbound at 4 h of the compound `O=C(O)CCCC(=O)Nc1ccc(O)c(C(=O)O)c1` is ____.
A) 0.9

---

- experiment summary: Pharmacokinetic study of C2 in Wistar rats (plasma, HPLC, non-compartmental analysis)
- Type: in vivo
- condition details: Wistar, rat, plasma, po, 100 mg/kg, i.g. (oral), single dose 100 mg/kg, Wistar rats; read-out: t1/2 e
quantity measured: half-life

Q) Fill blank: measured half-life of the compound `O=C(O)CCCC(=O)Nc1ccc(O)c(C(=O)O)c1` is ____.
A) ~27 min

---

- experiment summary: Pharmacokinetic study of C2 in Wistar rats (plasma, HPLC, non-compartmental analysis)
- Assay type: in vivo
- condition details: rat, plasma, ip, single dose (100 mg/kg in abstract, 75 mg/kg in methods), Wistar rats; read-out: Cmax
quantity measured: Cmax (ng/mL)
Give the number; ng/mL is assumed, so skip it.

Q) Fill blank: measured Cmax of the molecule `O=C(O)CCCC(=O)Nc1ccc(O)c(C(=O)O)c1` is ____.
A) 8700

---

- experiment summary: Pharmacokinetic study of C2 in Wistar rats (plasma, HPLC, non-compartmental analysis)
- Format: in vivo
- condition details: rat, plasma, oral; i.g. 100 mg/kg vs i.v. 50 mg/kg, Wistar rats; read-out: F% orally (absolute oral bioavailability)
quantity measured: bioavailability

Q) Fill blank: measured bioavailability of the compound `O=C(O)CCCC(=O)Nc1ccc(O)c(C(=O)O)c1` is ____.
A) ~13%

---

- experiment summary: Pharmacokinetic study of C2 in Wistar rats (plasma, HPLC, non-compartmental analysis)
- Type: in vivo
- condition details: rat, plasma, iv, single dose 50 mg/kg, Wistar rats
quantity measured: Vd
Lab note: write values as number then unit, every time.

Q) Fill blank: measured Vd of the compound O=C(O)CCCC(=O)Nc1ccc(O)c(C(=O)O)c1 [C2] is ____.
A) 2 L/kg

---

- experiment summary: Pharmacokinetic study of C2 in Wistar rats (plasma, HPLC, non-compartmental analysis)
- Format: in vivo
- condition details: rat, plasma, iv, single dose 50 mg/kg, Wistar rats
quantity measured: clearance (mL/min)
Give the number; mL/min is assumed, so skip it.

Q) Fill blank: measured clearance of the compound `O=C(O)CCCC(=O)Nc1ccc(O)c(C(=O)O)c1` is ____.
A) 13

---

- experiment summary: Pharmacokinetic study of C2 in Wistar rats (plasma, HPLC, non-compartmental analysis)
- Type: in vivo
- condition details: Wistar, rat, plasma, iv, 50 mg/kg, i.v., single dose 50 mg/kg, Wistar rats; read-out: t1/2 e (elimination half-life)
- Method: Prior to the studies (on the day of C2 administration), the Wistar rats (n = 6) were cannulated. […] The samples were prepared as follows: briefly, 450 μL of acetonitrile was added to 100 μL of rat plasma, and the mixture was vortexed for 5 min. […] The plasma concentrations of C2 were determined using an RP-HPLC with UV detection method that had previously been validated for pharmacokinetic studies and the complementary assays performed in this work. […]
quantity measured: half-life

Q) Fill blank: measured half-life of the compound `O=C(O)CCCC(=O)Nc1ccc(O)c(C(=O)O)c1` is ____.
A) ~33 min

---

- experiment summary: Pharmacokinetic study of C2 in Wistar rats (plasma, HPLC, non-compartmental analysis)
- Format: in vivo
- condition details: rat, plasma, ip, single dose (100 mg/kg in abstract, 75 mg/kg in methods), Wistar rats
quantity measured: AUC (ng·h/mL)
Give the number; ng·h/mL is assumed, so skip it.

Q) Fill blank: measured AUC of the compound `O=C(O)CCCC(=O)Nc1ccc(O)c(C(=O)O)c1` is ____.
A) 12500

---

- experiment summary: Pharmacokinetic study of C2 in Wistar rats (plasma, HPLC, non-compartmental analysis)
- Format: in vivo
- condition details: rat, plasma, po; intragastric administration, 100 mg/kg, Wistar rats (abstract); read-out: Cmax
quantity measured: Cmax (ng/mL)
Give the number; ng/mL is assumed, so skip it.

Q) Fill blank: measured Cmax of the compound `O=C(O)CCCC(=O)Nc1ccc(O)c(C(=O)O)c1` is ____.
A) 2500

---

- experiment summary: Pharmacokinetic study of C2 in Wistar rats (plasma, HPLC, non-compartmental analysis)
- Assay type: in vivo
- condition details: Wistar, rat, plasma, iv, 50 mg/kg, single dose 50 mg/kg, Wistar rats
quantity measured: Tmax

Q) Fill blank: measured Tmax of the compound `O=C(O)CCCC(=O)Nc1ccc(O)c(C(=O)O)c1` is ____.
A) 5 min

---

- experiment summary: Plasma protein binding assay (ultrafiltration)
- Assay type: in vitro ADME
- condition details: Wistar, rat, 1 μg/mL, ultrafiltration, 37°C, read-out: % Bound fraction of C2 in rat plasma ± SD (converted)
quantity measured: fraction unbound at 4 h, 1 μg/mL
Lab note: jot the number down without any unit.

Q) Fill blank: measured fraction unbound at 4 h, 1 μg/mL of the compound `O=C(O)CCCC(=O)Nc1ccc(O)c(C(=O)O)c1` is ____.
A) 0.921
